Signal/background reference
Target: T1, COX14 peptide complexed with HLA-A*02:01 on T2 cells (human)
T1 construct: whole, on cells
Experiment: flow cytometry, peptide-loaded T2 cells;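 further: binding of single-chain Fv antibody constructs, raised in XenoMouse, to peptide-pulsed T2 cells measured by flow cytometry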
Kindly provide the number alone.

Give the reported Signal/background for this binder. 18182-H12 (scFv, scFv in bacterial lysate, detected with anti-Flag M2) scFv: EVQLLESGGGLVQPGGSLRLSCAASGFTFSSYAMSWVRQAPGKGLEWVSTISGSGGGTYYADSVKGRFTISRDNSKNTLYLQMNSLRAEDTAVYYCATGKGVHLGFDYWGQGTLVTVSSGGGGSGGGGSGGGGSELMLTQPHSVSVAPGQTARITCGGNNIGSKSVHWYQQKPGQAPVLVVYDDNDRPSGIPERFSGSNFGNTATLIISRVEAGDEADYYCQVWDSSSDHVVFGGGTKLTVL 1.1

Give the reported Signal/background for this binder. 18181-G8 (scFv, scFv in bacterial lysate, detected with anti-Flag M2) scFv: EVQLLESGGGLVQPGGSLRLSCAASGFTFSNAWMSWVRQAPGKGLEWVGRIKGNTYGGTTDYAAPVKGRFTISRDDSKNTLFLQMNSLKTEDTAVYYCTTPSNSGSYYNYFSVMDVWGQGTTVTVSSGGGGSGGGGSGGGGSELVMTQSPSSLSASVGDRVTITCRTSQSISSYLNWYQQKPGKAPKLLIYAASSLQSGVPSRFSGSGSGTDFTLTISSLQPEDFATYYCQQTYSMPFTFGGGTKVEIK 1

Could you now consider this next binder?
Give the reported Signal/background for this binder. 18182-E10 (scFv, scFv in bacterial lysate, detected with anti-Flag M2) scFv: EVQLLESGGGLVQPGGSLRLSCAASGFTFSSHAMSWVRQAPGQGLEWVSSISGSGGGTYYAASVKGRFTISRDNSKNTLYLQMNSLRAEDTAVYYCATGKGVHLNFDYWGQGTLVTVSSGGGGSGGGGSGGGGSELALTQPASASVAPGQTARITCGGNNIGSKSVHWHQQKPGQAPVLVVYDDNDRPSGIPERFSGSNSGNTATLTISRVEAGDEADFYCQVWDSSSDHVVFGGGTKLTVL 0.9
